Would you mind telling me the reported Tmax of each entry?
assay: Pharmacokinetic study on mouse brain tissue (plasma/cerebrospinal fluid/brain tissue); format: in vivo; conditions: male, mouse, po; Brain tissue; ICR mice, intragastric administration 10 mg/kg
Remember to quote the unit after the number.

In one line, give reported Tmax of the entry "C=C(C(=O)Nc1ccc(-c2c(-c3ccc(Oc4nccc(C)n4)c(F)c3)c3c(N)ncnc3n2C)c(Cl)c1)C1CC1" .
1 h

In one line, give reported Tmax of the entry "C=C(C(=O)Nc1ccc(-c2c(-c3ccc(Oc4nccc(C)n4)c(F)c3)c3c(N)ncnc3n2C)cc1)C1CC1" .
1 h

* * *

target: FGFR2 V564I (Homo sapiens, UniProt P21802, V564I); experiment: FGFR2 and FGFR3 mutant enzymology, HTRF method (FGFR2 V564I); settings: kinase 0.03 nM, substrate 1 µM, ATP 20 µM
Sequence (P21802 22-821 V564I): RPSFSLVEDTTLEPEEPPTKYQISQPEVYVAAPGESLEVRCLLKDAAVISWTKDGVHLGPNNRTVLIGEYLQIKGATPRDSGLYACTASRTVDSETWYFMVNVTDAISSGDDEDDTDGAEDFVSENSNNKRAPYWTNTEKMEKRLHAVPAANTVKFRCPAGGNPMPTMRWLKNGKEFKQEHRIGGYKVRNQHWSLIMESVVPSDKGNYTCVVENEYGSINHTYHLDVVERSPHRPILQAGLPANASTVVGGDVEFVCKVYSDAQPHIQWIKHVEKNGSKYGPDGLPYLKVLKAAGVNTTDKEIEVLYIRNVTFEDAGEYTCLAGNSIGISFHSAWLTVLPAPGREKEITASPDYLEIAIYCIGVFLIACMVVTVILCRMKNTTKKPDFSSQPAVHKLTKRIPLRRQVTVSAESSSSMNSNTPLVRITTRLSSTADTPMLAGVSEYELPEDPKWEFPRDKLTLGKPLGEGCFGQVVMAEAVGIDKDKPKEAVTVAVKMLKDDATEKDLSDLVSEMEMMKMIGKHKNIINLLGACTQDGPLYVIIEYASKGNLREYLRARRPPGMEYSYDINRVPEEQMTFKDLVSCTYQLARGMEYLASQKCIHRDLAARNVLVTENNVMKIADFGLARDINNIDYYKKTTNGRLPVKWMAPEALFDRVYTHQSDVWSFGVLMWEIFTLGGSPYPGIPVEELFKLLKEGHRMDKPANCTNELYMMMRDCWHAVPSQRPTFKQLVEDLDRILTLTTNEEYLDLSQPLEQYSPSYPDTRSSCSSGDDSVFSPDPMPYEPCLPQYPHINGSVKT
quantity-measured: pIC50
// field semantics: pIC50 = negative decimal log of concentration (mol/L)

In one line, give reported pIC50 of the entry "C=C(C(=O)Nc1ccc(-c2c(-c3ccc(Oc4nccc(C)n4)c(F)c3)c3c(N)ncnc3n2C)c(Cl)c1)C1CC1" .
7.82
